Target: Prolyl endopeptidase (Mus musculus) (UniProt Q9QUR6)
Sequence (Q9QUR6 whole entry, looked up): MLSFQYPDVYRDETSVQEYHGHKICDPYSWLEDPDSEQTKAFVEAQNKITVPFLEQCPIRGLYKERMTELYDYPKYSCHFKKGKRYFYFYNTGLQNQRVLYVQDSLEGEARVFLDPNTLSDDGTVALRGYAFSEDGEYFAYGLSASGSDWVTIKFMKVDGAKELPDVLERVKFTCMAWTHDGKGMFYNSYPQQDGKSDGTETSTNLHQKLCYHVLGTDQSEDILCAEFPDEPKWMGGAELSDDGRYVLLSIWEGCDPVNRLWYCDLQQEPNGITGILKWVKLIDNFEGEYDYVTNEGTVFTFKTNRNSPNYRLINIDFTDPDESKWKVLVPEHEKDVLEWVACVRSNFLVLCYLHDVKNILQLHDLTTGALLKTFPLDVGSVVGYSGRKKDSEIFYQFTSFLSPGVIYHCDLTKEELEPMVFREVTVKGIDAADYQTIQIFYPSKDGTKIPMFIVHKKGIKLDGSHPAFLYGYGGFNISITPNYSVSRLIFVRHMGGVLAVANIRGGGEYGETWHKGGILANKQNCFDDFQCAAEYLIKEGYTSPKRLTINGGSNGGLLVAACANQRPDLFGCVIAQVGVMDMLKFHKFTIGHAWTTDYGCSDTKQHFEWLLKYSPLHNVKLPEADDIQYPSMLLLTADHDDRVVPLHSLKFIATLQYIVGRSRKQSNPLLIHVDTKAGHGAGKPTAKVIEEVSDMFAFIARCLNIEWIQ
Assay: mouse PEP inhibitors, selectivity assay for PREPL inhibitor project, biochemical, fluorescence, assay provider data (AID 624482)
Settings: recombinant PEP, Z-Gly-Pro-AMC fluorescence; at 20 µM; hits give high values
Endpoint name: inhibition (%)
Record the value in %, omitting the unit from your answer.

As a guide, the following entries are already answered.
Could you share which inhibition value was measured for CCOc1ccc(CCNC(=O)c2ccc3c(=O)[nH]c4c(C(=O)NC(C)C)sc(=S)n4c3c2)cc1 ?
-29

Same question, O=C(Nc1ccc2c(c1)OCCO2)c1cccc2nc3ccccc3nc12 this time
-26

Same question, CC(C)Cc1[nH]c(=O)c(C#N)c2c1CCC2 this time
-17

Same question, COc1cc2nc(Nc3ccc(C)c(C)c3)nc(N)c2cc1OC this time
46

Continue with the next compound.
Could you share which inhibition value was measured for N#Cc1c2c(c(-c3ccccc3)[nH]c1=O)CCCC2 ?
-13
